Origin of values: ChEMBL document CHEMBL1145536

Tested on: Mycobacterium tuberculosis
Assay: Antimicrobial activity against non replicating persistence Mycobacterium tuberculosis H37Rv in aerobic condition assessed as bacterial density after 7 days
Format: functional
Conditions: 168 h
READOUT KIND: MIC

* NC(=O)c1cnccn1 [PYRAZINAMIDE] | > 128 µM
* O=C(Nc1ccc([N+](=O)[O-])cc1Cl)c1cc(Cl)ccc1O [NICLOSAMIDE] | ≤ 0.5 µM
* Cc1ncc([N+](=O)[O-])n1CCO | > 128 µM
* CN[C@@H]1[C@H](O[C@H]2[C@H](O[C@H]3[C@H](O)[C@@H](O)[C@H](N=C(N)N)[C@@H](O)[C@@H]3N=C(N)N)O[C@@H](C)[C@]2(O)C=O)O[C@@H](CO)[C@H](O)[C@H]1O (stereo in doubt) | ≤ 0.5 µM
